- System: LG0703-F498-PDC complex spheroid growth
- assay_info: Anticancer human tumor LG0703-F498-PDC patient-derived lung adenocarcinoma cell line growth inhibition [AhR]
- condition_summary: curve of first compound; second compound 0.316 µM
Provide the recorded IC50 for the entries that follow.
Give a bare numeral; the unit µM is implied.

Which IC50 value belongs to COc1cccc2c1C(=O)c1c(O)c3c(c(O)c1C2=O)CC(O)(C(=O)CO)CC3OC1CC(N)C(O)C(C)O1 (stereo unspecified) + Cc1cncc(-c2nc(NCCc3c[nH]c4ccccc34)c3ncn(C(C)C)c3n2)c1 ?
0.454

Continue with COc1cc(Nc2ncc3c(n2)-c2ccc(Cl)cc2C(c2c(F)cccc2OC)=NC3)ccc1C(=O)O + Cc1cncc(-c2nc(NCCc3c[nH]c4ccccc34)c3ncn(C(C)C)c3n2)c1
5.26

Continue with COc1ccc([C@@H](O)c2cc(-c3ncnc4cc(N5CCOCC5)ccc34)c(F)cc2Cl)nn1 + Cc1ccccc1N=Nc1ccc(NC(=O)c2ccnn2C)c(C)c1
2.87

###

- Tested on: LG0703-F498-PDC complex spheroid growth
- assay_info: Anticancer human tumor LG0703-F498-PDC cell line growth inhibition [AhR];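 further: luminescence taken as a proxy for viable cell amount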;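 on viability, T/C: percent of DMSO vehicle control where 100% means growth equal to vehicle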
- condition_summary: second compound 3.16 µM; first compound 1 µM; stronger effect = lower value
quantity_kind: viability, T/C

Which viability, T/C value belongs to CC(C)c1c(-c2ccccc2)nc2c(C#N)c[nH]n2c1=O + CC(CO)NC(=O)c1cc(-c2ccc(Cl)cc2)nn(-c2cnn(C)c2)c1=O ?
69%

Continue with CC1COCCN1c1cc(C2(S(C)(=N)=O)CC2)nc(-c2ccnc3[nH]ccc23)n1 (stereo not drawn) + CC(CO)NC(=O)c1cc(-c2ccc(Cl)cc2)nn(-c2cnn(C)c2)c1=O
82.3%

Continue with Nc1ccccc1NC(=O)c1ccc(CNC(=O)OCc2cccnc2)cc1 + Cc1cncc(-c2nc(NCCc3c[nH]c4ccccc34)c3ncn(C(C)C)c3n2)c1
10.6%

###

Provide the recorded viability, T/C for the entries that follow.
- Test system: LG0703-F498-PDC complex spheroid growth
- assay_info: Anticancer human tumor LG0703-F498-PDC cell line growth inhibition [AhR];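 further: luminescence taken as a proxy for viable cell amount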;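 on viability, T/C: percent of DMSO vehicle control where 100% means growth equal to vehicle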
- condition_summary: second compound 0.316 µM; first compound 0.01 µM; stronger effect = lower value
Give a bare numeral; the unit % is implied.

Give LG0703-F498-PDC complex spheroid growth viability, T/C for CC1COCCN1c1cc(-c2ccnn2C)c2ccnc(-c3ccn[nH]3)c2n1 (configuration not stated) + Cc1ccccc1N=Nc1ccc(NC(=O)c2ccnn2C)c(C)c1
110

Continue with CC1COCCN1c1cc(-c2ccnn2C)c2ccnc(-c3ccn[nH]3)c2n1 (configuration not stated) + Cc1cncc(-c2nc(NCCc3c[nH]c4ccccc34)c3ncn(C(C)C)c3n2)c1
120

Continue with CC[C@@]1(O)C(=O)OCc2c1cc1n(c2=O)Cc2cc3c(CN(C)C)c(O)ccc3nc2-1 + Cc1ccccc1N=Nc1ccc(NC(=O)c2ccnn2C)c(C)c1
93.6

Continue with Cn1ncnc1C1c2n[nH]c(=O)c3cc(F)cc(c23)NC1c1ccc(F)cc1 (configuration not stated) + CC(CO)NC(=O)c1cc(-c2ccc(Cl)cc2)nn(-c2cnn(C)c2)c1=O
72.6

Continue with Nc1ncn(C2CC(O)C(CO)O2)c(=O)n1 (configuration not stated) + Cc1cncc(-c2nc(NCCc3c[nH]c4ccccc34)c3ncn(C(C)C)c3n2)c1
102

Continue with Cn1ncnc1C1c2n[nH]c(=O)c3cc(F)cc(c23)NC1c1ccc(F)cc1 (configuration not stated) + Cc1cncc(-c2nc(NCCc3c[nH]c4ccccc34)c3ncn(C(C)C)c3n2)c1
98.5

Continue with Cn1ncnc1C1c2n[nH]c(=O)c3cc(F)cc(c23)NC1c1ccc(F)cc1 (configuration not stated) + Cc1ccccc1N=Nc1ccc(NC(=O)c2ccnn2C)c(C)c1
94.3

Continue with CC1COCCN1c1cc(-c2ccnn2C)c2ccnc(-c3ccn[nH]3)c2n1 (configuration not stated) + CC(CO)NC(=O)c1cc(-c2ccc(Cl)cc2)nn(-c2cnn(C)c2)c1=O
110

Continue with CC[C@@]1(O)C(=O)OCc2c1cc1n(c2=O)Cc2cc3c(CN(C)C)c(O)ccc3nc2-1 + Cc1cncc(-c2nc(NCCc3c[nH]c4ccccc34)c3ncn(C(C)C)c3n2)c1
87.5

Continue with CC[C@@]1(O)C(=O)OCc2c1cc1n(c2=O)Cc2cc3c(CN(C)C)c(O)ccc3nc2-1 + CC(CO)NC(=O)c1cc(-c2ccc(Cl)cc2)nn(-c2cnn(C)c2)c1=O
80.9

Continue with Nc1ncn(C2CC(O)C(CO)O2)c(=O)n1 (configuration not stated) + CC(CO)NC(=O)c1cc(-c2ccc(Cl)cc2)nn(-c2cnn(C)c2)c1=O
91.9

Continue with Nc1ncn(C2CC(O)C(CO)O2)c(=O)n1 (configuration not stated) + Cc1ccccc1N=Nc1ccc(NC(=O)c2ccnn2C)c(C)c1
93.6

###

- System: LG0703-F498-PDC complex spheroid growth
- assay_info: Anticancer human tumor LG0703-F498-PDC cell line growth inhibition [AhR];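 further: luminescence taken as a proxy for viable cell amount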;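 on viability, T/C: percent of DMSO vehicle control where 100% means growth equal to vehicle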
- condition_summary: second compound 10 µM; first compound 10 µM; stronger effect = lower value
Category scheme (viability, T/C): 0 = under 4%, 1 = from 4% up to 30%, 2 = 30% and over

Bin this entry: O=C(c1cc(Cc2n[nH]c(=O)c3ccccc23)ccc1F)N1CCN(C(=O)C2CC2)CC1 + CC(CO)NC(=O)c1cc(-c2ccc(Cl)cc2)nn(-c2cnn(C)c2)c1=O
2

Continue with Nc1ccn(C2OC(CO)C(O)C2(F)F)c(=O)n1 (configuration not stated) + CC(CO)NC(=O)c1cc(-c2ccc(Cl)cc2)nn(-c2cnn(C)c2)c1=O
1

Continue with CC1(C)CCC(CN2CCN(c3ccc(C(=O)NS(=O)(=O)c4ccc(NCC5CCOCC5)c([N+](=O)[O-])c4)c(Oc4cnc5[nH]ccc5c4)c3)CC2)=C(c2ccc(Cl)cc2)C1 + Cc1cncc(-c2nc(NCCc3c[nH]c4ccccc34)c3ncn(C(C)C)c3n2)c1
1

Continue with COc1cc(C2c3cc4c(cc3C(OC3OC5COC(C)OC5C(O)C3O)C3COC(=O)C23)OCO4)cc(OC)c1O (configuration not stated) + CC(CO)NC(=O)c1cc(-c2ccc(Cl)cc2)nn(-c2cnn(C)c2)c1=O
2

Continue with COc1ccc([C@@H](O)c2cc(-c3ncnc4cc(N5CCOCC5)ccc34)c(F)cc2Cl)nn1 + Cc1ccccc1N=Nc1ccc(NC(=O)c2ccnn2C)c(C)c1
1

Continue with CC1(C)CCC(CN2CCN(c3ccc(C(=O)NS(=O)(=O)c4ccc(NCC5CCOCC5)c([N+](=O)[O-])c4)c(Oc4cnc5[nH]ccc5c4)c3)CC2)=C(c2ccc(Cl)cc2)C1 + CC(CO)NC(=O)c1cc(-c2ccc(Cl)cc2)nn(-c2cnn(C)c2)c1=O
1

Continue with O=C(c1cc(Cc2n[nH]c(=O)c3ccccc23)ccc1F)N1CCN(C(=O)C2CC2)CC1 + Cc1cncc(-c2nc(NCCc3c[nH]c4ccccc34)c3ncn(C(C)C)c3n2)c1
0

Continue with NS(=O)(=O)OCC1CC(n2ccc3c(NC4CCc5ccccc54)ncnc32)CC1O (configuration not stated) + Cc1ccccc1N=Nc1ccc(NC(=O)c2ccnn2C)c(C)c1
2

Continue with COc1cccc2c1C(=O)c1c(O)c3c(c(O)c1C2=O)CC(O)(C(=O)CO)CC3OC1CC(N)C(O)C(C)O1 (configuration not stated) + CC(CO)NC(=O)c1cc(-c2ccc(Cl)cc2)nn(-c2cnn(C)c2)c1=O
0

Continue with COc1cc(C2c3cc4c(cc3C(OC3OC5COC(C)OC5C(O)C3O)C3COC(=O)C23)OCO4)cc(OC)c1O (configuration not stated) + Cc1cncc(-c2nc(NCCc3c[nH]c4ccccc34)c3ncn(C(C)C)c3n2)c1
0

Continue with CC1COCCN1c1cc(C2(S(C)(=N)=O)CC2)nc(-c2ccnc3[nH]ccc23)n1 (configuration not stated) + Cc1cncc(-c2nc(NCCc3c[nH]c4ccccc34)c3ncn(C(C)C)c3n2)c1
0

Continue with COc1cc(Nc2ncc3c(n2)-c2ccc(Cl)cc2C(c2c(F)cccc2OC)=NC3)ccc1C(=O)O + Cc1cncc(-c2nc(NCCc3c[nH]c4ccccc34)c3ncn(C(C)C)c3n2)c1
0

Continue with Nc1ccccc1NC(=O)c1ccc(CNC(=O)OCc2cccnc2)cc1 + CC(CO)NC(=O)c1cc(-c2ccc(Cl)cc2)nn(-c2cnn(C)c2)c1=O
0

Continue with O=C(c1cc(Cc2n[nH]c(=O)c3ccccc23)ccc1F)N1CCN(C(=O)C2CC2)CC1 + Cc1ccccc1N=Nc1ccc(NC(=O)c2ccnn2C)c(C)c1
2

Continue with NS(=O)(=O)OCC1CC(n2ccc3c(NC4CCc5ccccc54)ncnc32)CC1O (configuration not stated) + CC(CO)NC(=O)c1cc(-c2ccc(Cl)cc2)nn(-c2cnn(C)c2)c1=O
2

Continue with COc1cccc2c1C(=O)c1c(O)c3c(c(O)c1C2=O)CC(O)(C(=O)CO)CC3OC1CC(N)C(O)C(C)O1 (configuration not stated) + Cc1cncc(-c2nc(NCCc3c[nH]c4ccccc34)c3ncn(C(C)C)c3n2)c1
0

Continue with COc1cc(C2c3cc4c(cc3C(OC3OC5COC(C)OC5C(O)C3O)C3COC(=O)C23)OCO4)cc(OC)c1O (configuration not stated) + Cc1ccccc1N=Nc1ccc(NC(=O)c2ccnn2C)c(C)c1
2

Continue with COc1cc(Nc2ncc3c(n2)-c2ccc(Cl)cc2C(c2c(F)cccc2OC)=NC3)ccc1C(=O)O + CC(CO)NC(=O)c1cc(-c2ccc(Cl)cc2)nn(-c2cnn(C)c2)c1=O
2

Continue with Nc1ccn(C2OC(CO)C(O)C2(F)F)c(=O)n1 (configuration not stated) + Cc1ccccc1N=Nc1ccc(NC(=O)c2ccnn2C)c(C)c1
1

Continue with Nc1ccccc1NC(=O)c1ccc(CNC(=O)OCc2cccnc2)cc1 + Cc1ccccc1N=Nc1ccc(NC(=O)c2ccnn2C)c(C)c1
1

Continue with CC(C)c1c(-c2ccccc2)nc2c(C#N)c[nH]n2c1=O + CC(CO)NC(=O)c1cc(-c2ccc(Cl)cc2)nn(-c2cnn(C)c2)c1=O
2

Continue with CC1COCCN1c1cc(C2(S(C)(=N)=O)CC2)nc(-c2ccnc3[nH]ccc23)n1 (configuration not stated) + CC(CO)NC(=O)c1cc(-c2ccc(Cl)cc2)nn(-c2cnn(C)c2)c1=O
2
